# Test system: Plasma
# test: Antithrombin activity in New Zealand white rabbit plasma assessed as activated partial thromboplastin time at 25 uM by coagulometer
# Format: functional, Oryctolagus cuniculus
The following compounds are shown together with reported APTT values.
metric: APTT (s)

sample_smiles=O=c1cc(-c2ccc(O)cc2)oc2cc(O)c(O)c(O)c12 target_desc=Plasma metric=APTT experimental_result=33.36
sample_smiles=O=c1cc(-c2ccc(O)cc2)oc2c(CN3CCOCC3)c(O)c(O)c(O)c12 target_desc=Plasma metric=APTT experimental_result=35.48
sample_smiles=CC(C)N(Cc1c(O)c(O)c(O)c2c(=O)cc(-c3ccc(O)cc3)oc12)C(C)C target_desc=Plasma metric=APTT experimental_result=34.52
sample_smiles=CCN1CCN(Cc2c(O)c(O)c(O)c3c(=O)cc(-c4ccc(O)cc4)oc23)CC1 target_desc=Plasma metric=APTT experimental_result=35.15
sample_smiles=CCN(CC)Cc1c(O)c(O)c(O)c2c(=O)cc(-c3ccc(O)cc3)oc12 target_desc=Plasma metric=APTT experimental_result=34.62
sample_smiles=CCCCN1CCN(Cc2c(O)c(O)c(O)c3c(=O)cc(-c4ccc(O)cc4)oc23)CC1 target_desc=Plasma metric=APTT experimental_result=35.01
sample_smiles=CN(C)Cc1c(O)c(O)c(O)c2c(=O)cc(-c3ccc(O)cc3)oc12 target_desc=Plasma metric=APTT experimental_result=34.23
sample_smiles=CN1CCN(Cc2c(O)c(O)c(O)c3c(=O)cc(-c4ccc(O)cc4)oc23)CC1 target_desc=Plasma metric=APTT experimental_result=35.42

---

# test: Solubility of the compound in water by UV-visible spectrophotometry
# Format: physicochemical
Label YES when solubility >= 8 µM; otherwise NO.

sample_smiles=CN(C)Cc1c(O)c(O)c(O)c2c(=O)cc(-c3ccc(O)cc3)oc12 discrete_label=YES
sample_smiles=CN1CCN(Cc2c(O)c(O)c(O)c3c(=O)cc(-c4ccc(O)cc4)oc23)CC1 discrete_label=NO
sample_smiles=CCN1CCN(Cc2c(O)c(O)c(O)c3c(=O)cc(-c4ccc(O)cc4)oc23)CC1 discrete_label=NO
sample_smiles=CCCCN1CCN(Cc2c(O)c(O)c(O)c3c(=O)cc(-c4ccc(O)cc4)oc23)CC1 discrete_label=YES
sample_smiles=CCN(CC)Cc1c(O)c(O)c(O)c2c(=O)cc(-c3ccc(O)cc3)oc12 discrete_label=NO
sample_smiles=O=c1cc(-c2ccc(O)cc2)oc2cc(O)c(O)c(O)c12 discrete_label=NO
sample_smiles=O=c1cc(-c2ccc(O)cc2)oc2c(CN3CCOCC3)c(O)c(O)c(O)c12 discrete_label=YES

---

# System: Plasma
# test: Antithrombin activity in New Zealand white rabbit plasma assessed as prothrombin time at 25 uM by coagulometer
# Type: functional, Oryctolagus cuniculus
The following compounds are shown together with reported PT values.
metric: PT

compound=CCN1CCN(Cc2c(O)c(O)c(O)c3c(=O)cc(-c4ccc(O)cc4)oc23)CC1 metric=PT experimental_result="7.41 s"
compound=CN1CCN(Cc2c(O)c(O)c(O)c3c(=O)cc(-c4ccc(O)cc4)oc23)CC1 metric=PT experimental_result="7.71 s"
compound=CCCCN1CCN(Cc2c(O)c(O)c(O)c3c(=O)cc(-c4ccc(O)cc4)oc23)CC1 metric=PT experimental_result="7.4 s"
compound="O=c1cc(-c2ccc(O)cc2)oc2cc(O)c(O)c(O)c12 [SCUTELLAREIN]" metric=PT experimental_result="7.34 s"
compound=CCN(CC)Cc1c(O)c(O)c(O)c2c(=O)cc(-c3ccc(O)cc3)oc12 metric=PT experimental_result="7.55 s"
compound=O=c1cc(-c2ccc(O)cc2)oc2c(CN3CCOCC3)c(O)c(O)c(O)c12 metric=PT experimental_result="7.84 s"
compound=CC(C)N(Cc1c(O)c(O)c(O)c2c(=O)cc(-c3ccc(O)cc3)oc12)C(C)C metric=PT experimental_result="7.47 s"
compound=CN(C)Cc1c(O)c(O)c(O)c2c(=O)cc(-c3ccc(O)cc3)oc12 metric=PT experimental_result="7.45 s"

---

# test: Solubility of the compound in water by UV-visible spectrophotometry relative to scutellarein
# Type: physicochemical
The following molecules are shown together with reported fold change (FC) values.
metric: fold change (FC)

sample_smiles=CN1CCN(Cc2c(O)c(O)c(O)c3c(=O)cc(-c4ccc(O)cc4)oc23)CC1 metric="fold change (FC)" experimental_result=1.05
sample_smiles=CN(C)Cc1c(O)c(O)c(O)c2c(=O)cc(-c3ccc(O)cc3)oc12 metric="fold change (FC)" experimental_result=1.23
sample_smiles=CCN1CCN(Cc2c(O)c(O)c(O)c3c(=O)cc(-c4ccc(O)cc4)oc23)CC1 metric="fold change (FC)" experimental_result=1.02
sample_smiles=O=c1cc(-c2ccc(O)cc2)oc2c(CN3CCOCC3)c(O)c(O)c(O)c12 metric="fold change (FC)" experimental_result=1.67
sample_smiles=CCCCN1CCN(Cc2c(O)c(O)c(O)c3c(=O)cc(-c4ccc(O)cc4)oc23)CC1 metric="fold change (FC)" experimental_result=1.31
sample_smiles=CCN(CC)Cc1c(O)c(O)c(O)c2c(=O)cc(-c3ccc(O)cc3)oc12 metric="fold change (FC)" experimental_result=1.11
sample_smiles=CC(C)N(Cc1c(O)c(O)c(O)c2c(=O)cc(-c3ccc(O)cc3)oc12)C(C)C metric="fold change (FC)" experimental_result=1.15

---

# test: Absolute bioavailability in po dosed Beagle dog
# Format: ADME, organism-based, Canis lupus familiaris
# assay conditions: in vivo
metric: bioavailability (%)

molecule="O=C(O)[C@H]1O[C@@H](Oc2cc3oc(-c4ccc(O)cc4)cc(=O)c3c(O)c2O)[C@H](O)[C@@H](O)[C@@H]1O [SCUTELLARIN]" units=% experimental_result=0.4

---

# System: Plasma
# test: Antithrombin activity in New Zealand white rabbit plasma assessed as thrombin time at 25 uM by coagulometer
# Assay type: functional, Oryctolagus cuniculus
metric: TT (s)

sample_smiles=CCN(CC)Cc1c(O)c(O)c(O)c2c(=O)cc(-c3ccc(O)cc3)oc12 experimental_result=12.63
sample_smiles=CC(C)N(Cc1c(O)c(O)c(O)c2c(=O)cc(-c3ccc(O)cc3)oc12)C(C)C experimental_result=11.75
sample_smiles=O=c1cc(-c2ccc(O)cc2)oc2c(CN3CCOCC3)c(O)c(O)c(O)c12 experimental_result=14.48
sample_smiles=CN1CCN(Cc2c(O)c(O)c(O)c3c(=O)cc(-c4ccc(O)cc4)oc23)CC1 experimental_result=14.4
sample_smiles=O=c1cc(-c2ccc(O)cc2)oc2cc(O)c(O)c(O)c12 experimental_result=10.25
sample_smiles=CCN1CCN(Cc2c(O)c(O)c(O)c3c(=O)cc(-c4ccc(O)cc4)oc23)CC1 experimental_result=14.13
sample_smiles=CCCCN1CCN(Cc2c(O)c(O)c(O)c3c(=O)cc(-c4ccc(O)cc4)oc23)CC1 experimental_result=13.45
sample_smiles=CN(C)Cc1c(O)c(O)c(O)c2c(=O)cc(-c3ccc(O)cc3)oc12 experimental_result=12.58

The values you see were collected from ChEMBL document CHEMBL2203222.
